system: P. falciparum chloroquine-resistant strain FcB1-Columbia; assay: Antiplasmodial screen at 10 µM and chemosensitivity assay (SYBR Green I), FcB1-Columbia; type: cell-based, Plasmodium falciparum; conditions: read-out: IC50 on P. falciparum; FcB1-Columbia strain
// reported IC50 for each item listed
measuredParameter: IC50 (nM)

compound	measuredParameter	unitOfMeasure	inequalitySign	reportedValue
CCOP(=O)(OCC)C(N(OC(C)c1cc(-c2ccccn2)nc(-c2ccccn2)c1)C(C)(C)CO)C(C)(C)C (stereo not drawn) [(RR/SS)-2F]	IC50	nM	=	200
CCOP(=O)(OCC)C(N(OC(C)c1cc(-c2ccccn2)nc(-c2ccccn2)c1)C(C)(C)CO)C(C)(C)C (stereo not drawn) [(RS/SR)-2F]	IC50	nM	=	300
CCOP(=O)(OCC)[C@@H](N(O[C@@H](C)c1ccncc1)C(C)(C)C)C(C)(C)C (relative stereo) [(RS/SR)-1a]	IC50	nM	>	3000
